Experiment: gradient 5% acetonitrile 3 min, to 50% in 2 min, to 85% in 15 min, held 3 min, 100 µL/min
Conditions: column: Zorbax Extend-C18 2.1 x 50 mm; eluents: water / acetonitrile, 0.1% formic acid
recordedEndpoint: RP-LC retention time (s)

O=C1NC(=O)c2cc(Nc3ccccc3)c(Nc3ccccc3)cc21 : 1040
Cc1cc(C)c(S(=O)(=O)N2CCCC(C(=O)Nc3ccc4c(c3)OCO4)C2)c(C)c1 (stereo not given) : 974
CCn1cc(-c2ccc(C)cc2)cc1C(=O)NC(C)C : 1040
CC(C)NC(=O)N1CCC2(CC1)CCC(O)(CN1CCc3ccccc31)CC2 : 882
CCOc1ccc(-c2noc(Cn3c(=O)n(-c4ccccc4)c(=O)c4sccc43)n2)cc1OC : 910

====

Assay: gradient 5% acetonitrile 3 min, to 50% in 2 min, to 85% in 15 min, held 3 min, 100 µL/min
Settings: column: Zorbax Extend-C18 2.1 x 50 mm; eluents: water / acetonitrile, 0.1% formic acid
recordedEndpoint: RP-LC retention time (s)

Cc1ccc(CNC(=O)CN2CCc3ccccc3C2C(=O)N2CCC(C)CC2)cc1C (stereo not given) : 1030
Clc1ccc(OCc2nc(-c3cccc(-c4ccn[nH]4)c3)no2)cc1 : 1010
COc1ccc(NS(=O)(=O)c2ccc3c(c2)-c2oncc2CO3)c(OC)c1 : 852
Cc1ccc(CNS(=O)(=O)c2ccc(-c3c(C)noc3C)cc2)o1 : 893
Cc1cc(C)n(-c2ccnc(N3CCC(C(=O)NC4CC4)CC3)n2)n1 : 693

a = Cc1ccccc1-c1nc2cnccn2c1NCCC(=O)NC1CC1
b = CC(C)(C)c1ccc(C(=O)N2CCC3(CC2)N=C(c2ccccc2)NO3)cc1
Kindly compare a with b and tell me which has the lower RP-LC retention time figure. Bench note: the answer is the label of the chosen record.
a

====

Test: gradient 5% acetonitrile 3 min, to 50% in 2 min, to 85% in 15 min, held 3 min, 100 µL/min
Settings: column: Zorbax Extend-C18 2.1 x 50 mm; eluents: water / acetonitrile, 0.1% formic acid
recordedEndpoint: RP-LC retention time (s)

Example cases with answers are listed next.
Fc1ccc(-c2nc(-c3ccc4nncn4c3)no2)c(Cl)c1 : 849
CCCNc1cc(N2CCC(CCC(=O)NCCOC)CC2)ncn1 : 590
O=c1[nH]c2ccc(NCc3ccccc3Cl)cc2[nH]1 : 641

A = CC(NC(=O)C(=O)c1c[nH]c2ccccc12)c1ccccc1 (stereo unspecified)
B = Cc1ccc(Nc2nc(C(=O)NCc3cccnc3)nc3ccccc23)cc1
Hi, I'm comparing two records. Which one has the lower RP-LC retention time, A or B ? Kindly give the label for the entry you pick.
B
(B: 609 s, A: 924 s)

1 = CCC(=O)Nc1ccc(-n2cnc(C(=O)NCC(C)C)c2)nc1
2 = Cc1ccc(-c2noc(-c3ccccc3S(=O)(=O)N3CCCCC3C)n2)cc1 (stereo unspecified)
Between item 1 and item 2 , which reported RP-LC retention time is smaller? To answer, give the label that identifies your chosen option.
1
(1: 667 s, 2: 1250 s)

====

Test: gradient 5% acetonitrile 3 min, to 50% in 2 min, to 85% in 15 min, held 3 min, 100 µL/min
Settings: column: Zorbax Extend-C18 2.1 x 50 mm; eluents: water / acetonitrile, 0.1% formic acid
recordedEndpoint: RP-LC retention time (s)

COC(=O)c1ccc2c(=O)n(-c3ccccc3)c(N3CCC(C)CC3)nc2c1 : 1210

a = Cc1ccc2c(C)nc(Nc3ncc4c(n3)CCCC4=O)nc2c1
b = O=C(Nc1ccc(F)c(F)c1)C1CCCN(c2nc3ccsc3c(=O)n2Cc2ccc(F)cc2)C1 (stereo not given)
In terms of reported RP-LC retention time, does a or b have the smaller number? Label of pick, please.
a
(a: 598 s, b: 1050 s)

P = CCn1c(CCNC(=O)c2ccccc2F)nc2cccnc21
Q = O=C(NCc1ccc(-c2nc(-c3ccc(F)cc3)no2)s1)C1CCC1
Could you determine which record has the numerically smaller RP-LC retention time? Candidates: P and Q Selection: enter the item's label.
P
(P: 602 s, Q: 975 s)

====

Assay: gradient 5% acetonitrile 3 min, to 50% in 2 min, to 85% in 15 min, held 3 min, 100 µL/min
Conditions: column: Zorbax Extend-C18 2.1 x 50 mm; eluents: water / acetonitrile, 0.1% formic acid
recordedEndpoint: RP-LC retention time (s)

CC1CCN(C(=O)C2CCc3sc(C(=O)N(C)C)cc3C2)CC1 (stereo not given) : 717
Cc1ccnc(NC(=O)C2CC(=O)N(c3n[nH]c4cccc(F)c34)C2)c1 (stereo not given) : 602
O=S(=O)(c1cccnc1)N1CCC(c2ccccc2)C1 (stereo not given) : 773
O=C(c1ccc2c(c1)OCO2)N1CCCC2(C1)NC(=O)N(Cc1ccccc1)C2=O (stereo not given) : 762
CCCn1nnnc1NCc1ccc2c(c1)n(C)c(=O)n2C : 638
Cc1ccn2cc(C(=O)N3CCN(c4ccc(Cl)cc4)CC3)nc2c1 : 715
COCCN1C(=O)Cc2ccccc2C1C(=O)NCc1ccccc1Br (stereo not given) : 775
CCCNC(=O)N1CC(Oc2ccc(-c3nc(-c4ccccc4)no3)cc2)C1 : 861
Cc1ccccc1-n1ccn(Cc2nc(-c3ccc(Cl)c(F)c3)no2)c(=O)c1=O : 679
CCn1ccc(C(=O)Nc2ccc3ncnc(N4CCCC4)c3c2)n1 : 616

====

Experiment: gradient 5% acetonitrile 3 min, to 50% in 2 min, to 85% in 15 min, held 3 min, 100 µL/min
Settings: column: Zorbax Extend-C18 2.1 x 50 mm; eluents: water / acetonitrile, 0.1% formic acid
recordedEndpoint: RP-LC retention time (s)

Record excerpt, results attached:
CCCc1cc(N2CCN(C(=O)COc3ccccc3)CC2)nc2nnc(C)n12 : 634
CCc1nc2cc(-c3noc(COc4ccc(Cl)cc4)n3)ccc2o1 : 1170
COc1ccc(-c2csc(Cc3nc(-c4ccc(Cl)cc4)no3)n2)cc1 : 1290
Cc1nc(C)c(C(=O)N2CCCCCNC(=O)[C@@H]3CCC[C@@H]32)s1 : 638
CC(C)c1cc(C2CCCN2C(=O)c2ccc3c(c2)OCO3)on1 (stereo not given) : 824
CN1CCN(S(=O)(=O)c2ccc(C#N)cc2)CC1c1ccccc1 (stereo not given) : 528
CC(C)(C)NC(=O)c1ccc(-n2cc(CNC(=O)C3CC3)cn2)cc1 : 711
CCc1onc(C)c1C1CCCN1C(=O)c1ccccc1F (stereo not given) : 775

A = Cc1[nH]c2ccccc2c1C(=O)C(=O)N(C)c1ccccc1
B = Cc1ccc(NC(=O)Cn2nc(N3CCCC(C)C3)c3ccccc3c2=O)cc1 (stereo not given)
Parameter check: reported RP-LC retention time is higher for which label, A or B ? In your reply, give the label of the chosen option.
B
(B: 1140 s, A: 767 s)

====

Experiment: gradient 5% acetonitrile 3 min, to 50% in 2 min, to 85% in 15 min, held 3 min, 100 µL/min
Settings: column: Zorbax Extend-C18 2.1 x 50 mm; eluents: water / acetonitrile, 0.1% formic acid
recordedEndpoint: RP-LC retention time (s)

COc1ccc(-n2ccn3cc(-c4ccc(F)cc4F)nc3c2=O)cc1 : 716

P = O=C(NCc1ccco1)N1CCN(c2nc3cccnc3n(Cc3ccccc3)c2=O)CC1
Q = Cn1nccc1C(=O)Nc1ccsc1-c1nc(-c2ccc(Cl)cc2)no1
Hi, I'm comparing two records. Which one has the lower RP-LC retention time, P or Q ? Give the label of your selection.
P

====

Experiment: gradient 5% acetonitrile 3 min, to 50% in 2 min, to 85% in 15 min, held 3 min, 100 µL/min
Conditions: column: Zorbax Extend-C18 2.1 x 50 mm; eluents: water / acetonitrile, 0.1% formic acid
recordedEndpoint: RP-LC retention time (s)

A = Cc1ccsc1CN1CC(Oc2ccc(-c3noc(C4CCOCC4)n3)cc2)C1
B = Cc1nc(-c2ccccc2)nc2c1CCC(=O)N2Cc1ccco1
Which numeric RP-LC retention time is bigger, that of A or that of B ? In your reply, give the label of the chosen option.
B

A = COC(=O)c1ccc(NC(=O)C(=O)NCC2CCN(C(=O)c3ccccc3F)CC2)cc1
B = Cc1ccc(NS(=O)(=O)c2cc(-c3nc(C(C)(C)C)cs3)cs2)c(Cl)c1
Which one would you say has the larger RP-LC retention time value: A , or B ? // return label of chosen record
B
(B: 1320 s, A: 751 s)

====

Experiment: gradient 5% acetonitrile 3 min, to 50% in 2 min, to 85% in 15 min, held 3 min, 100 µL/min
Details: column: Zorbax Extend-C18 2.1 x 50 mm; eluents: water / acetonitrile, 0.1% formic acid
recordedEndpoint: RP-LC retention time (s)

Here are 6 molecules together with their reported answers.
Cn1cnc2c(C(=O)NC3CCCCC3)nn(-c3ccccc3)c2c1=O : 855
CCc1noc(-c2ccc(-n3ncc(C(=O)NC4CCCCC4)c3C)nc2)n1 : 1020
O=C(COc1ccc(Cl)cc1)NCc1ccc2c(c1)OCCCO2 : 870
CCn1c(N2CCCC(C(=O)NCCCOC)C2)cc(=O)n(C)c1=O (stereo not given) : 665
CCC(C)(C)c1ccc(Oc2cccc(C(=O)O)c2)cc1 : 1260
O=C1CCN([C@@H]2O[C@H](CO)[C@@H](O)[C@H]2O)C(=O)N1 : 933

a = CCOC(=O)c1c(C)[nH]c(CN(Cc2ccc3c(c2)OCO3)C(=O)c2ccco2)c1C
b = COc1nccnc1NC1CCN(C(=O)c2ccnn2C)CC1
Param pair: a , b . Output: the one whose RP-LC retention time is numerically greater. Answer by stating the label of the chosen item.
a
